Reference for the values: the supplement of paper PMC11451515

- Tested on: NOMO1
- ASSAY SUMMARY: cell viability relative to DMSO control; higher = less cytotoxic
- PROTOCOL CONDITIONS: HPLM + 10% dialyzed FBS; 48 h; 5.12 µM
Cut-off 80% on cell viability: below means Y, at or above means N.

Here are 5 molecules together with their reported answers.
Cn1c(Nc2ccc(C(F)(F)F)cc2)nc2cc(Oc3ccnc(-c4nc(C(F)(F)F)c[nH]4)c3)ccc21; N
c1cc(CN2CCCNCCNCCCNCC2)ccc1CN1CCCNCCNCCCNCC1; N
CN(C)CCc1c[nH]c2ccc(C[C@H]3COC(=O)N3)cc12; N
O=C(O)c1ccc(-n2nc(-c3ccccc3O)nc2-c2ccccc2O)cc1; N
CC\1=C(C(=O)N(\C=C1)C2=CC=C(C=C2)C3=NC=CO3)/C4=CC5=CN=C(N)N=C5C=C4; N

Is cell viability strictly under 80% for the entry `CC(C)(C)C(=O)Oc1ccc([S+](=O)([O-])Nc2ccccc2C(=O)NCC(=O)O)cc1` ?
N

Is cell viability strictly under 80% for the entry `NC(CO)(CO)CCc1ccc(Sc2cccc(OCc3ccccc3)c2)cc1Cl` ?
Y

Is cell viability strictly under 80% for the entry `CCc1c(C(=O)C(N)=O)c2c(OCC(=O)O)cccc2n1Cc1ccccc1` ?
N

Is cell viability strictly under 80% for the entry `CCC[C@H](N[C@@H](C)C(=O)N1[C@H](C(=O)O)C[C@@H]2CCCC[C@@H]21)C(=O)OCC` ?
Y

Is cell viability strictly under 80% for the entry `C[C@@H](O)[C@@H]1[C@H]2[C@@H](C)\C(=C(/N2C1=O)C(=O)OCOC(=O)C(C)(C)C)SC3CN(C3)/C4=N/CCS4` ?
Y

Is cell viability strictly under 80% for the entry `Oc1ccc(/C=C/c2cc(O)cc(O)c2)cc1` ?
N

Is cell viability strictly under 80% for the entry `OC[C@H]1O[C@H]([C@@H](F)[C@@H]1O)N2\C=C/C(=O)NC2=O` ?
N

Is cell viability strictly under 80% for the entry `OC(=O)\C1=C\N(C2=CC=C(F)C=C2)C3=C(C=C(F)C(=C3)N4CCNCC4)C1=O` ?
N

Is cell viability strictly under 80% for the entry `CCOc1ccc(Nc2nc(-c3c(C)nc4ccccn34)cs2)cc1` ?
Y

Is cell viability strictly under 80% for the entry `O=C(/C=C/c1c(C(=O)[O-])[nH]c2cc(Cl)cc(Cl)c12)Nc1ccccc1` ?
N

Is cell viability strictly under 80% for the entry `O=C1Nc2ccc(Cl)cc2[C@@](C#CC2CC2)(C(F)(F)F)O1` ?
Y

----------
- Test system: SEM cells
- ASSAY SUMMARY: cell viability relative to DMSO control; higher = less cytotoxic
- PROTOCOL CONDITIONS: RPMI 5 mM glucose + 10% dialyzed FBS; 48 h; 15.4 µM
The following ranges of cell viability define the classes used here: bin 1 (below 20%), bin 2 (20% to below 80%), bin 3 (80% or more)

Here are 3 compounds together with their reported answers.
COc1cc(O)c2c(c1)C1OC1C[C@H](O)[C@H](O)C(=O)/C=C\C[C@H](C)OC2=O (stereo partly specified); bin 2
Cn1c(Nc2ccc(C(F)(F)F)cc2)nc2cc(Oc3ccnc(-c4nc(C(F)(F)F)c[nH]4)c3)ccc21; bin 2
CC(C)(C)C(=O)OCOP(=O)(COCCn1cnc2c(N)ncnc21)OCOC(=O)C(C)(C)C; bin 1

Hey, which category is `CC(=O)Nc1ccc([C@H](C)C(=O)Nc2ncc(C(C)C)s2)cc1` in, do you know?
bin 1

Hey, which category is `CC1(C)C(=O)N(CCN2CCC(C(=O)c3ccc(F)cc3)CC2)c2ccccc21` in, do you know?
bin 3

Hey, which category is `COc1cc2c(Nc3ccc(Cl)c(Cl)c3F)ncnc2cc1OC[C@@H]1C[C@@H]2CN(C)C[C@@H]2C1` in, do you know?
bin 2

Hey, which category is `O=C1C[C@@H](c2ccc(O)cc2)Oc2cc(O)cc(O)c21` in, do you know?
bin 3

Hey, which category is `CO[C@H]1C[C@@H]2CC[C@@H](C)[C@@](O)(O2)C(=O)C(=O)N2CCCC[C@H]2C(=O)O[C@H]([C@H](C)C[C@@H]2CC[C@@H](OC(=O)C(C)(CO)CO)[C@H](OC)C2)CC(=O)[C@H](C)/C=C(\C)[C@@H](O)[C@@H](OC)C(=O)[C@H](C)C[C@H](C)/C=C/C=C/C=C/1C` in, do you know?
bin 2

Hey, which category is `NC(=O)c1ncn([C@@H]2O[C@H](CO)[C@@H](O)[C@H]2O)n1` in, do you know?
bin 3

Hey, which category is `CN(C/C=C/C#CC(C)(C)C)Cc1cccc2ccccc12` in, do you know?
bin 3

Hey, which category is `CCn1c(-c2nonc2N)nc2cncc(CNC3CCNCC3)c21` in, do you know?
bin 2

Hey, which category is `CCNC(=O)c1cc2c(-c3cc(OCCN4CCCC4)c(Cl)cc3Cl)nc(N)nc2s1` in, do you know?
bin 1

Hey, which category is `CCC[C@H](N[C@@H](C)C(=O)N1[C@H](C(=O)O)C[C@@H]2CCCC[C@@H]21)C(=O)OCC` in, do you know?
bin 3

----------
# Lookup of reported cell viability keyed by entry
- System: NOMO1
- ASSAY SUMMARY: cell viability relative to DMSO control; higher = less cytotoxic
- PROTOCOL CONDITIONS: RPMI 5 mM glucose + 10% dialyzed FBS; 48 h; 1.71 µM
Give your result in % as a bare value.

Examples with their reported cell viability follow.
Oc1ccc(C2CCN(c3ccnc4ccccc34)CC2)cc1O; 109
Cc1cccc(-c2nn(C(=S)Nc3ccccc3)cc2-c2ccnc3ccccc23)n1; 104
O=C(Nc1cccc(Nc2ncc(Br)c(NCCc3cnc[nH]3)n2)c1)N1CCCC1; 59.6
C[S+](=O)([O-])N(Cc1ccco1)CC(O)Cn1c2ccccc2c2ccccc21 (stereo not drawn); 85.1
CC(C)n1nc(-c2ccc3oc(N)nc3c2)c2c(N)ncnc21; 48.6
Oc1ccc(/C=C/c2cc(O)cc(O)c2)cc1; 97.4

For the compound `CCN(CC)CCCCNc1nc2cc(Cl)c(Cl)cc2nc1-c1ccc(-c2cccs2)s1` , the measured cell viability on NOMO1 was 108

For the compound `CCN(CC)C(=S)SSC(=S)N(CC)CC` , the measured cell viability on NOMO1 was 120

For the compound `COc1cc(Nc2ncc(F)c(Nc3ccc4c(n3)NC(=O)C(C)(C)O4)n2)cc(OC)c1OC` , the measured cell viability on NOMO1 was 103

For the compound `CC[C@H]1/C=C\C=C/C[C@@H](C)[C@H](O)[C@@](C)(O)C(=O)[C@@H](C)[C@H](O)[C@@H](C)C(=O)[C@@H](C)[C@H](O)[C@@H](C)/C=C/C(=O)O[C@@H]2[C@H](C)[C@H](CC1)O[C@]1(CC[C@H](C)[C@H](C[C@@H](C)O)O1)[C@H]2C` , the measured cell viability on NOMO1 was 54.2

For the compound `COc1cc2c(Oc3ccc(NC(=O)C4(C(=O)Nc5ccc(F)cc5)CC4)cc3F)ccnc2cc1OCCCN1CCOCC1` , the measured cell viability on NOMO1 was 46.5

For the compound `CC\1=C(C(=O)N(\C=C1)C2=CC=C(C=C2)C3=NC=CO3)/C4=CC5=CN=C(N)N=C5C=C4` , the measured cell viability on NOMO1 was 101

For the compound CC(=O)CC(C1=CC=CC=C1)C/2=C(O)/C3=CC=CC=C3OC2=O (stereo not drawn) , the measured cell viability on NOMO1 was 121

----------
- Tested on: NOMO1
- ASSAY SUMMARY: AUC of viability dose-response curve (% viability x log10 dose units); higher = less sensitive
- PROTOCOL CONDITIONS: RPMI 5 mM glucose + 10% FBS; 48 h
PARAMETER MEASURED: AUC of viability dose-response curve
Returns: the value as a bare number; no unit string appended.

For the molecule `CCOc1ccc(Nc2nc(-c3c(C)nc4ccccn34)cs2)cc1` , the measured AUC of viability dose-response curve on NOMO1 was 252

For the molecule `CN(C)C(=O)c1ccc([S+](=O)([O-])c2ccc(NC(=O)[C@@](C)(O)C(F)(F)F)c(Cl)c2)cc1` , the measured AUC of viability dose-response curve on NOMO1 was 425

For the molecule `CC1=C(C=CC=C1)N2\C(=N/C3=C(C(=CC=C3)C)C2=O)C[N]4N=CC5=C4N=CN=C5N` , the measured AUC of viability dose-response curve on NOMO1 was 307

For the molecule CNC1[C@@H](O)C(O[C@@H]2C(O)C(O[C@H]3O[C@H]([C@@H](C)NC)CC[C@H]3N)[C@@H](N)C[C@H]2N)OC[C@]1(C)O (some centres not stated) , the measured AUC of viability dose-response curve on NOMO1 was 448

For the molecule `NC1=NC=C(C=C1)C2=CC=C3N=CC\4=C(N(C(=O)\C=C4)C5=CC(=CC=C5)C(F)(F)F)C3=C2` , the measured AUC of viability dose-response curve on NOMO1 was 214

For the molecule `CC(C)C[C@H](NC(=O)[C@@H](NC(=O)c1cccc(-c2ccccc2)n1)[C@@H](C)O)B(O)O` , the measured AUC of viability dose-response curve on NOMO1 was 218

For the molecule `Oc1ccc(/C=C/c2cc(O)cc(O)c2)cc1` , the measured AUC of viability dose-response curve on NOMO1 was 457

For the molecule `[NH2][Pt]([NH2])([Cl])[Cl]` , the measured AUC of viability dose-response curve on NOMO1 was 421
